Target: human SERT (Homo sapiens)
Construct: expressed in transfected cells; host or cells: HEK293 (gift of Dr. Hoener, F. Hoffmann-La Roche)
Sequence (P31645 whole entry): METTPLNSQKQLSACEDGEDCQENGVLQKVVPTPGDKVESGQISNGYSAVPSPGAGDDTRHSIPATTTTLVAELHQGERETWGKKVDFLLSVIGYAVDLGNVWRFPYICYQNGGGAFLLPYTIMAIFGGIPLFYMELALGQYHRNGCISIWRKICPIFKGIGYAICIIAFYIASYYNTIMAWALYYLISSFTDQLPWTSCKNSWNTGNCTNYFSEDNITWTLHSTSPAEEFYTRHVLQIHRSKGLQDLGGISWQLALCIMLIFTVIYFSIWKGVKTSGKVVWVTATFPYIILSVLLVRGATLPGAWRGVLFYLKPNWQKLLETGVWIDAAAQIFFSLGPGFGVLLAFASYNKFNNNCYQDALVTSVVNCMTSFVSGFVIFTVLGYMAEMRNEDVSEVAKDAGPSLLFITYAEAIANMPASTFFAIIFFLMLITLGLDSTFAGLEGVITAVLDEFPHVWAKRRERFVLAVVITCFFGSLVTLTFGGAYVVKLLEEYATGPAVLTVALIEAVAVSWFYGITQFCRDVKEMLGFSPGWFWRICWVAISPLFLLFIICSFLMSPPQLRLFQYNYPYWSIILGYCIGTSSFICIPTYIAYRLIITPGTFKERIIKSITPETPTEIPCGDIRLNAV
Type: cell-based
Conditions: 1µM; Control = 100.00
Hi there, I'd appreciate the recorded SERT, Mean (Figure 8B) for every entry that follows.
Output: the number by itself.

Measured SERT, Mean (Figure 8B) (human SERT (Homo sapiens)), entry O=C(c1cc[nH]c1)N(Cc1ccc(F)cc1)c1ccccc1 [Compound 12b] : 88.76

Result for O=C(c1ccco1)N(Cc1ccc(C(F)(F)F)cc1)c1ccccc1 [Compound 19d] , tested on human SERT (Homo sapiens), SERT, Mean (Figure 8B): 104.62

Measured SERT, Mean (Figure 8B) (human SERT (Homo sapiens)), entry COc1ccc(N(Cc2ccc(F)cc2)C(=O)c2cc[nH]c2)cc1 [Compound 12a] : 99.47

Bench note, human SERT (Homo sapiens): O=C(c1ccco1)N(Cc1ccc(F)cc1)c1ccccc1 [Compound 19b] , SERT, Mean (Figure 8B) reads 104.08

###

Target: human DAT (Homo sapiens, UniProt Q01959)
Construct: expressed in transfected cells; host or cells: HEK293 (gift of Dr. Hoener, F. Hoffmann-La Roche)
Sequence (Q01959 whole entry): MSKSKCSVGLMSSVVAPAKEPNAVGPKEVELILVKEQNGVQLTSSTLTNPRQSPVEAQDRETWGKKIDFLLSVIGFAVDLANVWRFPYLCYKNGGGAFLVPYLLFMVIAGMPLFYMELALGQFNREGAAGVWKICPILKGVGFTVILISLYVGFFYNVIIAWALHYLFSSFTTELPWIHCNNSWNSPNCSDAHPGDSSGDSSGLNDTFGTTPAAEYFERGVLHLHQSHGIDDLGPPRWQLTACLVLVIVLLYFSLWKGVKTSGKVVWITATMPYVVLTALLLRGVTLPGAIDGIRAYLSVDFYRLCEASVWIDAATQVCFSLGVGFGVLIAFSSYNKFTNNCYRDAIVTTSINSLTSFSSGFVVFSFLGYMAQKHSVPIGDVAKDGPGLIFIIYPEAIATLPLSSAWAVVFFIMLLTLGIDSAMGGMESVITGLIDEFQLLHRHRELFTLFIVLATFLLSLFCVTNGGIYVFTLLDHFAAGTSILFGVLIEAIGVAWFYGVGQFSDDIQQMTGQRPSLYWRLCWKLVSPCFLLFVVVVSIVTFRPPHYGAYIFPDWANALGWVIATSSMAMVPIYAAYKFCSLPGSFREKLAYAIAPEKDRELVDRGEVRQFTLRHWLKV
Assay type: cell-based
Details: 1µM; Control = 100
readout: DAT, Mean (Figure 8B)

O=C(c1cc[nH]c1)N(Cc1ccc(F)cc1)c1ccccc1 [Compound 12b] has a reported DAT, Mean (Figure 8B) of 98.697

DAT, Mean (Figure 8B) in this record for COc1ccc(N(Cc2ccc(F)cc2)C(=O)c2cc[nH]c2)cc1 [Compound 12a] : 80.4016

For this compound ( O=C(c1ccco1)N(Cc1ccc(F)cc1)c1ccccc1 [Compound 19b] ), measured DAT, Mean (Figure 8B) is 94.861

// recorded DAT, Mean (Figure 8B) for O=C(c1ccco1)N(Cc1ccc(C(F)(F)F)cc1)c1ccccc1 [Compound 19d] : 99.9783

###

Tested on: HRV-B14
Experiment: microbe, parasite or virus in culture
Assay type: cell-based, human rhinovirus
Settings: Human rhinovirus sp., HRVB14, HeLa R19, read-out: EC50 HRV-B14 Experiment 2
readout: pEC50
Interpret pEC50 as the negative base-10 log of the concentration measured in mol/L.

pEC50 recorded for this compound, `COc1ccc(N(Cc2ccc(F)cc2)C(=O)c2ccco2)cc1` , is 5.04

###

Give measured log10(EC50) for each item. Keep answers brief.
Test system: CV-B3
Assay: microbe, parasite or virus in culture
Type: cell-based, coxsackievirus B3
Conditions: Enterovirus B, CVB3, HeLa R19, read-out: CV-B3 Exp2 EC50
The figures below represent log10 of EC50, where EC50 is stated in µM.

Memo: O=C(c1ccco1)N(Cc1ccccc1)c1ccccc1 [Compound 19a, N-Benzyl-N-phenylfuran-2-carboxamide] , reported log10(EC50): -0.03

Item: `COc1ccc(N(Cc2ccc(F)cc2)C(=O)c2cccs2)cc1` | log10(EC50): -0.26

Lookup result for COc1ccc(N(Cc2ccc(C(F)(F)F)cc2)C(=O)c2ccco2)cc1 [Compound 19e] ; measured log10(EC50): -0.01

Field log10(EC50) (entry COc1ccc(N(Cc2ccccc2)C(=O)c2ccco2)cc1 [Compound 19c] ) reads 0.58

// log10(EC50) lookup, compound = `O=C(c1ccc[nH]1)N(Cc1ccc(C(F)(F)F)cc1)c1ccccc1` , result: 0.20

// log10(EC50) value for CC(C)c1ccc(CN(C(=O)c2ccco2)c2ccccc2)cc1 [Compound 19h] : 0.79

The compound identified as O=C(c1ccco1)N(Cc1ccc(S(F)(F)(F)(F)F)cc1)c1ccccc1 [Compound 19f] registered its log10(EC50) at 0.43

// log10(EC50) value for O=C(c1ccco1)N(Cc1ccccc1)c1ccc(C(F)(F)F)cc1 [Compound 19i] : 0.41

The compound O=C(c1ccco1)N(Cc1ccc(F)cc1)c1ccccc1 [Compound 19b] showed log10(EC50) equal to -0.03
